These measurements were taken from ChEMBL document CHEMBL5131493.

- Tested on: K562
- experiment-description: Antiproliferative activity against human K562 cells assessed as cell growth inhibition incubated for 72 hrs by MTT assay
- Type: functional, cell-based
- measurement-parameters: K562, 72 h
observed-property: log10 of IC50 (log10 of the value in µM)
Record value = log10 of IC50 given in µM.

## Task Find the measured log10 of IC50 of "CCOC(=O)C1=C(Nc2ccccc2Br)S/C(=C\c2ccc[nH]2)C1=O" and report it.
## Result 1.56

## Task Find the measured log10 of IC50 of "CCOC(=O)C1=C(Nc2cccc([N+](=O)[O-])c2)S/C(=C\c2ccc[nH]2)C1=O" and report it.
## Result 0.86

## Task Find the measured log10 of IC50 of "CCOC(=O)C1=C(Nc2ccccc2)S/C(=C\c2ccc(O)c(OC)c2)C1=O" and report it.
## Result 1.02

## Task Find the measured log10 of IC50 of "CCOC(=O)C1=C(Nc2ccccc2)S/C(=C\c2ccc(C(F)(F)F)cc2)C1=O" and report it.
## Result 0.85

## Task Find the measured log10 of IC50 of "CCOC(=O)C1=C(Nc2ccccc2)S/C(=C\c2ccccc2O)C1=O" and report it.
## Result 0.94

## Task Find the measured log10 of IC50 of "CCOC(=O)C1=C(Nc2ccccc2)S/C(=C\c2cccc(O)c2)C1=O" and report it.
## Result 1.59

## Task Find the measured log10 of IC50 of "CCOC(=O)C1=C(Nc2ccccc2)S/C(=C\c2ccc(F)c(C#N)c2)C1=O" and report it.
## Result 0.20

## Task Find the measured log10 of IC50 of "CCOC(=O)C1=C(Nc2ccccc2)S/C(=C\c2ccc([N+](=O)[O-])c(O)c2)C1=O" and report it.
## Result 1.10

## Task Find the measured log10 of IC50 of "CCOC(=O)C1=C(Nc2ccccc2)S/C(=C2\CCN(C(=O)OC(C)(C)C)C2)C1=O" and report it.
## Result 1.06

## Task Find the measured log10 of IC50 of "CCOC(=O)C1=C(Nc2ccccc2)SC(=C2CCC2)C1=O" and report it.
## Result 0.65

## Task Find the measured log10 of IC50 of "CCOC(=O)C1=C(Nc2ccccc2)S/C(=C\c2cc3ncccc3[nH]2)C1=O" and report it.
## Result 0.82

## Task Find the measured log10 of IC50 of "CCOC(=O)C1=C(Nc2ccccc2)S/C(=C\c2ccc(O)c(O)c2)C1=O" and report it.
## Result 0.72

## Task Find the measured log10 of IC50 of "CCOC(=O)C1=C(Nc2ccccc2)S/C(=C\c2cc(OC)c(O)c(OC)c2)C1=O" and report it.
## Result 1.50

## Task Find the measured log10 of IC50 of "CCOC(=O)C1=C(Nc2ccccc2)S/C(=C\c2ccc(C(=O)OCC)[nH]2)C1=O" and report it.
## Result 1.67

====

- System: MCF7
- experiment-description: Antiproliferative activity against human MCF7 cells assessed as cell growth inhibition incubated for 72 hrs by MTT assay
- Type: functional, cell-based
- measurement-parameters: MCF7, 72 h
Criterion: IC50 strictly under 20 µM. Met: True. Not met: False.

## Task # check: IC50 < 20 µM for "CCOC(=O)C1=C(Nc2ccccc2)S/C(=C\c2ccc(F)c(C#N)c2)C1=O"
## Result True

## Task # check: IC50 < 20 µM for "CCOC(=O)C1=C(Nc2ccccc2)S/C(=C\c2ccc(C(=O)OCC)[nH]2)C1=O"
## Result False

## Task # check: IC50 < 20 µM for "CCOC(=O)C1=C(Nc2ccccc2)S/C(=C\c2ccc(C(F)(F)F)cc2)C1=O"
## Result True

## Task # check: IC50 < 20 µM for "CCOC(=O)C1=C(Nc2cccc([N+](=O)[O-])c2)S/C(=C\c2ccc[nH]2)C1=O"
## Result False

## Task # check: IC50 < 20 µM for "CCOC(=O)C1=C(Nc2ccccc2Br)S/C(=C\c2ccc[nH]2)C1=O"
## Result False

## Task # check: IC50 < 20 µM for "CCOC(=O)C1=C(Nc2ccccc2)S/C(=C\c2ccc(O)c(OC)c2)C1=O"
## Result False

## Task # check: IC50 < 20 µM for "CCOC(=O)C1=C(Nc2ccccc2)S/C(=C\c2ccccc2O)C1=O"
## Result True

## Task # check: IC50 < 20 µM for "CCOC(=O)C1=C(Nc2ccccc2)S/C(=C\C2CCCCC2)C1=O"
## Result True

## Task # check: IC50 < 20 µM for "CCOC(=O)C1=C(Nc2ccccc2)SC(=C2CCC2)C1=O"
## Result True

## Task # check: IC50 < 20 µM for "CCOC(=O)C1=C(Nc2ccccc2)S/C(=C\c2ccc[nH]2)C1=O"
## Result False

## Task # check: IC50 < 20 µM for "CCOC(=O)C1=C(Nc2ccccc2)S/C(=C\c2ccc(O)c(O)c2)C1=O"
## Result False
